As shown below, each of these binders has a reported kon value.
Target: T1, recombinant extracellular domain (ECD) of human TF, amino acid 1-219 of the mature chain, C-terminal His6-tag (human, UniProt P13726 33-251)
T1 construct: expressed in a mammalian system; used for ELISA and Biacore; biotinylated by NHS-ester for the Fab ELISA; also called His6-TF-ECD1-219; HumanTF1-219
Test: Biacore

| binder | kon [M⁻¹ s⁻¹] |
| --- | --- |
| M1586 (antibody, V domains shown, complete MAb; FR4 is its own entry; also called H164/L3) VH: EVQLVQSGAEVKKPGESLRISCKGSGYTFPTYWIEWVRQMPGKGLEWMGDIIPGTGWTNYSPSFQGHVTISADKSISTAYLQWSSLKASDTAMYYCARSGYYGNSGFAYWGQGTLVTVSS VL: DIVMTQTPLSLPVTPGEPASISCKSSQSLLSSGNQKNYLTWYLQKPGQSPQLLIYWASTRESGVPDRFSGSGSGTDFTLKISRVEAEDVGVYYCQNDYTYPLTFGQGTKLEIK | 184000 |
| M1610 (antibody, V domains shown, complete MAb; FR4 is its own entry; also called H115/L3) VH: EVQLVQSGAEVKKPGESLRISCKGSGYTFAPYWIEWVRQMPGKGLEWMGDIIPGTGYTTYSPSFQGHVTISADKSISTAYLQWSSLKASDTAMYYCARSGYYGNSGFAYWGQGTLVTVSS VL: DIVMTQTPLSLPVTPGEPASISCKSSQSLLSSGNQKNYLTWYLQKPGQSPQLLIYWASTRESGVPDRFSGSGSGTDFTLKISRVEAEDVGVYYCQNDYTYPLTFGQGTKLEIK | 184000 |
| M12 (antibody, V domains shown, complete MAb; FR4 is its own entry; also called H15/L5) VH: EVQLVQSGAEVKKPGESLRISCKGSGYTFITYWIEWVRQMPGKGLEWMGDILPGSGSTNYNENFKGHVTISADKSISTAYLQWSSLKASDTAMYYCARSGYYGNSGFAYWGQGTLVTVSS VL: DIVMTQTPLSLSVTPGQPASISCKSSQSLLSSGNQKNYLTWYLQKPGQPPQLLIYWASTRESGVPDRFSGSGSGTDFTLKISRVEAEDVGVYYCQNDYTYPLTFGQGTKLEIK | 92200 |
